Target: human CD33 L273A (human, UniProt P20138 18-364)
Sequence (P20138 18-364 L273A limits assumed): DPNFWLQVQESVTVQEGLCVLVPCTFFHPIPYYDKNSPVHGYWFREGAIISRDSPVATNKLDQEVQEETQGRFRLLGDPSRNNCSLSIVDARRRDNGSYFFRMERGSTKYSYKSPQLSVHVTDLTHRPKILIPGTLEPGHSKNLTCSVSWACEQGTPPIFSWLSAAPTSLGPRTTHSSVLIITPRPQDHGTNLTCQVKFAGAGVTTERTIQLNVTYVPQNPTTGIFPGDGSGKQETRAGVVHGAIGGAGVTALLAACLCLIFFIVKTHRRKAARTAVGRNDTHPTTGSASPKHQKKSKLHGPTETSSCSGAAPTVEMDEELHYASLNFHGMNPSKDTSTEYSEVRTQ
Assay: alanine scan, flow cytometry, HEK293-T;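 further: antibody binding to each alanine-substituted CD33 mutant expressed transiently in HEK293-T, read as fluorescence minus background, mean of duplicates, relative to wild-type CD33 set as 100%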
TEST_READOUT: Mean % WT Binding (% WT binding)
Write the answer as a number in % WT binding, unit excluded.

What measured Mean % WT Binding goes with Refmab #1 (antibody, V domains shown, The alanine scan used IgG or Fab; also called hP67.6) VH: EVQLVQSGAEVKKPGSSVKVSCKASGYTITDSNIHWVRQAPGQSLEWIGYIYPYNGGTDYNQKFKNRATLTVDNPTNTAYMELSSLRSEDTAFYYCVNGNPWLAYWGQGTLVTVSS VL: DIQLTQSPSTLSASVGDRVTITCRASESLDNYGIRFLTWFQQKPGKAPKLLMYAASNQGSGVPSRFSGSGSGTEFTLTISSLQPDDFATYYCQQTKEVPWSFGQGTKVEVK ? 110

Refmab #3 (antibody, V domains shown, The alanine scan used IgG or Fab) VH: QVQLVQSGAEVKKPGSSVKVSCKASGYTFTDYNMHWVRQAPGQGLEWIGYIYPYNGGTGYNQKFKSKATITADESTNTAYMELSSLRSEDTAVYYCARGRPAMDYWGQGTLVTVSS VL: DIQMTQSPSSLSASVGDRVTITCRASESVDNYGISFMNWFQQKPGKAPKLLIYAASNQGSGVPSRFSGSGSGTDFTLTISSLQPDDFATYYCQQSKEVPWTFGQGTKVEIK ? 125

Try Refmab #4 (antibody, V domains shown, The alanine scan used IgG or Fab) VH: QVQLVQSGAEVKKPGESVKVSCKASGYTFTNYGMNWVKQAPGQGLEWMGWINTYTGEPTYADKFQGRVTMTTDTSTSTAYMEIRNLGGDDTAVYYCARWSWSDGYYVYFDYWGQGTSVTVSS VL: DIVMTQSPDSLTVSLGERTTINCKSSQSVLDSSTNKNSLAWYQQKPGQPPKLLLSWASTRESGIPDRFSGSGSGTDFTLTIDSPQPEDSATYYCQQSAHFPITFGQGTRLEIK next. 115

Here is the next binder: Refmab #2 (antibody, V domains shown, The alanine scan used IgG or Fab) VH: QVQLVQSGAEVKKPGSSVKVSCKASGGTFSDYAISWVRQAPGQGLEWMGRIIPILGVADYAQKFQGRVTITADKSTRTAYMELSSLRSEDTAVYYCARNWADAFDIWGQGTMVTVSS VL: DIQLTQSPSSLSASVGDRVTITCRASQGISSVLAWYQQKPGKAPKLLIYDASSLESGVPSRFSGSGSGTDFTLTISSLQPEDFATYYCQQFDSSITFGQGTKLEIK 117

Every entry's value here was drawn from patent US20260242735A1.
